test: Retention in body organs with time (gas chromatography); assay type: in vivo, rats; conditions: rat, 0.32 mL/100 g; 10 Days; heart; 0.32 ml. fluorocarbon per 100 gm body weight; read-out: Residual fluorocarbon concentration, heart
Reported metric: concentration at 240 h (ng/g)

> print(dat)
                                   compound         reported.metric  recorded.number
1  FC1(F)N2C(F)(F)C(F)(F)C(F)(F)C2(F)C(F)(F)C(F)(F)C(F)(F)C1(F)F (stereo not shown)  concentration at 240 h           260000

----------
assay: Retention in body organs with time (gas chromatography); format: in vivo, rats; settings: rat, 0.32 mL/100 g; 7 Days (Av. of 2); spleen; 0.32 ml. fluorocarbon per 100 gm body weight; read-out: Residual fluorocarbon concentration, spleen

Compound	Reading unit	concentration at 168 h
FC1(F)N2C(F)(F)C(F)(F)C(F)(F)C2(F)C(F)(F)C(F)(F)C(F)(F)C1(F)F (stereo not shown) [ABCD, perfluoro-1-azabicyclo(5,3,0)decane]	ng/g	2.23e+07
